# Tested on: Diabrotica balteata
# assay_protocol: Diabrotica balteata spray test
# Type: in vivo
# reported_conditions: Diabrotica balteata, 168 h, application rate 100 g/ha, after 7 days
metric: pest or weed control at 100 g/ha (%)
Answers are plain numbers, in %.

As a guide, the following entries are already answered.
compound	pest or weed control at 100 g/ha / %
CCS(=O)(=O)c1ccc(-n2ncn(-c3ccc(Cl)cc3)c2=O)nc1-c1nc2cc(S(=O)(=O)C(F)(F)Cl)ccc2o1 [Example I-08]	80
CCS(=O)(=O)c1ccc(-n2ncn(-c3cccc(Br)c3)c2=O)nc1-c1nc2cc(OC(F)(F)C(F)(F)F)ccc2o1 [Example I-26]	100
CCS(=O)(=O)c1ccc(-n2ncn(-c3ccc(Br)c(Cl)c3)c2=O)nc1-c1nc2cc(S(=O)(=O)C(F)(F)F)ccc2o1 [Example I-20]	100

Report pest or weed control at 100 g/ha for each item below.
1. CCS(=O)(=O)c1ccc(-n2ncn(-c3ccc(Cl)cc3)c2=O)cc1-c1nc2cc(Br)ccc2o1 [Example I-53]
2. CCS(=O)(=O)c1ccc(-n2ncn(C3CC3C(F)(F)F)c2=O)nc1-c1nc2cc(S(=O)(=O)C(F)(F)F)ccc2o1 (stereo not drawn) [Example I-39]
3. CCS(=O)(=O)c1ccc(-n2ncn(-c3cccc(Br)c3)c2=O)nc1-c1nc2cc(S(=O)(=O)C(F)(F)F)ccc2o1 [Example I-15]

Reply text:
100
100
100
